Ref: PubChem BioAssay (NCI)

system: SF-295 CNS; experiment: NCI tumour cell line growth inhibition, 48 h
Decision: TGI >= 20 µM yields fulfilled, all other cases yield not fulfilled.

INSERT INTO results (compound, label_value) VALUES
  ('Cn1c(=O)[nH]c2c(c1=O)C(=O)CN2', 'fulfilled');

API: above_or_equal(metric=TGI, cutoff=20 µM) for item Nc1no[n+]([O-])c1-c1nnc2c(n1)-c1ccccc1C2=O fulfilled

Is reported TGI greater than or equal to 20 µM here: CCOC(OC1=C(C#N)CCCC1)C(CC)[Se]c1ccccc1[N+](=O)[O-] (configuration not stated) fulfilled

Identify whether the reported TGI of the following compound is 20 µM or greater: O=c1[nH]c2ccccc2n1C1CCN(CCOc2ccccc2)CC1 not fulfilled

Determine whether measured TGI meets or exceeds 20 µM for N#CC(C#N)=Cn1c(=S)[nH]c2ccc([N+](=O)[O-])cc21 fulfilled

Assess whether reported TGI for O=C(CC1Sc2ccccc2NC1=O)NNc1ccc(F)cc1 (configuration not stated) sits at 20 µM or higher. fulfilled

Quick check, TGI >= 20 µM? COc1cc([C@@H]2c3cc4c(cc3[C@@H](NC(=O)NO)[C@H]3COC(=O)[C@H]23)OCO4)cc(OC)c1O fulfilled

Has COC(=O)[C@H](C)N(C)C(=O)[C@H](C)N1[C@@H](c2ccccc2)COC1(C)C a recorded TGI greater than or equal to 20 µM? fulfilled

Would you say Nc1ncnc2c1ncn2CCCCC(=O)O shows TGI at minimum 20 µM? fulfilled

Determine whether measured TGI meets or exceeds 20 µM for OCC1OC(n2cnc3c(NCc4ccco4)ncnc32)C(O)C1O (configuration not stated) not fulfilled

// inclusive: TGI at least 20 µM? input: CCC(C)C(=O)OC1CCC=C2C=CC(C)C(CCC3CC(O)CC(=O)O3)C21 (configuration not stated) fulfilled

Hi, just wondering whether C=C1C(=O)O[C@H]2[C@H]1CC/C(COC(=O)N[C@H](Cc1c[nH]c3ccccc13)C(=O)OC)=C\CC[C@@]1(C)O[C@@H]21 shows TGI of 20 µM or higher. fulfilled

###

tested on: SK-OV-3 ovarian; assay: NCI tumour cell line growth inhibition, 48 h
This listing pairs compounds with measured TGI.
// units = µM; emit number, no label

# example entries with known answers
INSERT INTO assay_data (compound, recorded_metric, meas_value) VALUES
  ('C1=C\CCCCN2CC[C@H]3[C@H](CCCC/C=C\CCCN4C[C@@H](CCCCC/1)C[C@@H]3C4)C2', 'TGI', 26.2),
  ('C=CCN1C(=O)[C@]2(SC1=S)[C@H](c1cccc(Cl)c1)CN(C)[C@]21C(=O)NC2C=CC(Cl)=C[C@H]21 (some centres undefined)', 'TGI', 29.2);

Indicate its recorded TGI; the compound in question is NC(=O)NC(=O)c1cccc(NC(=O)CCl)c1 8.88

Tell me its TGI given Nc1no[n+]([O-])c1-c1nnc2c(n1)-c1ccccc1C2=O as the entry. 51.5

###

Measured GI50, listed per entry.
tested on: UACC-62 melanoma; assay: NCI tumour cell line growth inhibition, 48 h

The following compounds have reported results that may help.
INSERT INTO assay_data (compound, meas_value) VALUES
  ('C=C1C(=O)O[C@H]2[C@H]1CC/C(COC(=O)/C=C\C(=O)NCc1ccc(Cn3c(=O)sn(-c4ccc(Cl)cc4)c3=O)cc1)=C\CC[C@@]1(C)O[C@@H]21', '0.724 µM'),
  ('Nc1nc(N)c(-c2ccc(Cl)c(Cl)c2)c(CP(Cl)(Cl)(Cl)Br)n1', '6.4 µM'),
  ('NC(Cc1c[nH]c2cccc(F)c12)C(=O)O (stereo not drawn)', '582 µM'),
  ('C=C1C(O)C2CC(C)(C)C(=O)C2=C(CC(C)C)C12CC2 (stereo not drawn)', '> 100 µM'),
  ('O=c1[nH]c2ccccc2n1C1CCN(CCOc2ccccc2)CC1', '50.5 µM');

Quote GI50 reported for O=C(COc1cccc(/C=C2\Oc3ccc4ccccc4c3C2=O)c1)c1ccc([N+](=O)[O-])cc1 please. 14.1 µM

// Input: Nc1cc(N)c2nc(-c3ccccc3)c(NCc3ccc(Cl)c(Cl)c3)nc2c1 . Output its GI50 only. 14 µM

State its GI50 for this compound: Nc1no[n+]([O-])c1-c1nnc2c(n1)-c1ccccc1C2=O 4.47 µM
